From various publications: Ki for Protein kinase C alpha type (Homo sapiens, UniProt P17252).

These solved cases illustrate the format of a correct answer.
O=c1[nH]c2cnc(NCC3CCCNC3)nc2n1Cc1ccccc1Cl (centres unmarked) = > 10 µM
NCC1CCCN(c2cc(C(F)(F)F)cc(-c3n[nH]c4ncccc34)n2)C1 (centres unmarked) = > 1.25 µM
Fc1ccc(CNc2ncc3nc(-c4c(Cl)cccc4Cl)n(CCC4CCNCC4)c3n2)cc1 = > 1 µM
C1=C(c2cccc(-c3n[nH]c4ncccc34)n2)CCNC1 = > 1.25 µM
Fc1ccc(CNc2ncc3nc(-c4ccccc4Cl)n(C[C@@H]4CCCNC4)c3n2)cc1F = > 1 µM
CC(C)C[C@H]1CC(F)(c2cccc(-c3n[nH]c4ncccc34)n2)CCN1 (some centres unmarked) = > 1.25 µM

List Ki for every entry below, keeping the order given.
1. CC(C)C[C@H]1CN(c2ccc(C(F)(F)F)c(-c3n[nH]c4ncccc34)n2)CC[C@H]1N
2. Cc1sc(N2CCCNCC2)nc1C(=O)c1cccnc1N
3. Cc1cccc(C)c1C1CN(c2cccc(C(=O)c3cccnc3N)n2)CCN1 (centres unmarked)
4. CC[C@@H]1CN(c2ccc(C(F)(F)F)c(C(=O)c3cccnc3N)n2)C[C@H](CC(C)C)N1

### Response
["< 2.8 µM", "0.5 to 2.8 µM", "0.5 to 2.8 µM", "< 0.05 µM"]

###

From various publications: Ki for Protein kinase C alpha type (Homo sapiens).

These solved cases illustrate the format of a correct answer.
Clc1ccc(CNc2ncc3nc(-c4c(Cl)cccc4Cl)n(C[C@@H]4CCCNC4)c3n2)cc1Cl = > 10000 nM
CO[C@H]1CN(c2ccc(C(F)(F)F)c(-c3n[nH]c4ncccc34)n2)CC[C@H]1N = > 1250 nM

List Ki for every entry below, keeping the order given.
1. C[C@H](Nc1ncc2nc(-c3c(Cl)cccc3Cl)n(C[C@@H]3CCCNC3)c2n1)c1ccccc1F
2. CC(C)CC1(C)CN(c2ccc(F)c(-c3n[nH]c4ncccc34)n2)CCC1N (centres unmarked)
3. CC(C)(O)CC1CN(c2cccc(-c3n[nH]c4ncccc34)n2)CCN1 (centres unmarked)
4. NCCCNc1ccc(C(F)(F)F)c(C(=O)c2cccnc2N)n1

### Response
["> 10000 nM", "< 500 nM", "< 2800 nM", "500 to 2800 nM"]

List Ki for every entry below, keeping the order given.
1. CCC[C@H]1CN(c2ccc(C(F)(F)F)c(-c3n[nH]c4ncccc34)n2)C[C@H]1N
2. C=C(F)c1ccc(N2CCNC(C(F)(F)F)C2)nc1C(=O)c1cccnc1N (centres unmarked)

### Response
1: > 1250 nM; 2: 500 to 2800 nM

###

From various publications: Ki for Protein kinase C alpha type (Homo sapiens, UniProt P17252).

CCOc1ncnc2[nH]nc(-c3cccc(N4CCNC(CC(C)C)C4)n3)c12 (centres unmarked) = > 1250 nM
Nc1ncccc1C(=O)c1nc(NCCCO)ccc1C(F)(F)F = 500 to 2800 nM
CC(C)(F)CC1CN(c2cccc(-c3n[nH]c4ncccc34)n2)CCN1 (centres unmarked) = > 1250 nM
N#CCCC1CN(c2ccc(F)c(-c3n[nH]c4ncccc34)n2)CCC1O (centres unmarked) = > 1250 nM

List Ki for every entry below, keeping the order given.
1. Fc1cccc(Cl)c1-c1nc2cnc(NCc3ccc(Cl)c(Cl)c3)nc2n1C[C@@H]1CCCNC1
2. Nc1ncccc1C(=O)c1nc(NCC2CCC(N)CC2)ccc1C(F)(F)F (centres unmarked)
3. CCC1CN(c2ccc(F)c(-c3n[nH]c4ncccc34)n2)CCC1C#N (centres unmarked)
4. Fc1ccc(CNc2cc3c(cn2)nc(-c2c(F)cccc2Cl)n3C[C@@H]2CCNC2)cc1Cl
5. C[C@H]1CN(c2cccc(-c3n[nH]c4ncccc34)n2)CCN1
6. NC1CCN(c2cc(CO)cc(-c3n[nH]c4ncccc34)n2)CC1
7. Clc1cccc(Cl)c1-c1nc2cnc(NCc3cccs3)nc2n1C[C@@H]1CCCNC1

### Response
1. > 10000 nM
2. > 2800 nM
3. > 1250 nM
4. > 1000 nM
5. > 1250 nM
6. > 1250 nM
7. > 1000 nM

###

From various publications: Ki for Protein kinase C alpha type (Homo sapiens).

CC(C)[C@H]1CN(c2cccc(-c3n[nH]c4ncccc34)n2)CCN1 = < 2.8 µM
N#CCCC1CN(c2ccc(C(F)(F)F)c(-c3n[nH]c4ncccc34)n2)CCC1O (centres unmarked) = > 1.25 µM
CCC(CN)n1cc(-c2ccnc3[nH]ncc23)cn1 (centres unmarked) = > 1.25 µM
CC(C)C[C@H]1CN(c2ccc(C(F)(F)F)c(-c3n[nH]c4ncccc34)n2)CC[C@H]1O = > 1.25 µM
COC(C)(C)CC1CN(c2cccc(-c3n[nH]c4ncccc34)n2)CCN1 (centres unmarked) = > 1.25 µM
Nc1ncccc1C(=O)c1nc(OCC2(N)CCCC2)ccc1C(F)(F)F = > 2.8 µM

List Ki for every entry below, keeping the order given.
1. CCCc1ccc(N2CCN[C@@H](CC(C)C)C2)nc1C(=O)c1cccnc1N
2. Fc1ccc(Cl)cc1CNc1ncc2nc(-c3c(F)cccc3Cl)n(C[C@@H]3CCCNC3)c2n1
3. CCC1CN(c2ccc(C(F)(F)F)c(-c3n[nH]c4ncccc34)n2)CCC1CN (centres unmarked)
4. FC1(c2cccc(-c3n[nH]c4ncccc34)n2)CCNCC1

### Response
0.5 to 2.8 µM
> 10 µM
> 1.25 µM
< 2.8 µM

List Ki for every entry below, keeping the order given.
1. NC(=O)C1(N)CCN(c2ccc(C(F)(F)F)c(-c3n[nH]c4ncccc34)n2)CC1
2. CCNC(=O)CC1CN(c2ccc(C(F)(F)F)c(-c3n[nH]c4ncccc34)n2)CCN1 (centres unmarked)
3. Fc1cccc(CNc2ncc3nc(-c4c(Cl)cccc4Cl)n(C[C@H]4CCNC4)c3n2)c1
4. c1ccc(C[C@H]2CN(c3cccc(-c4n[nH]c5ncccc45)n3)CCN2)cc1

### Response
["> 1.25 µM", "> 1.25 µM", "> 1 µM", "> 1.25 µM"]

List Ki for every entry below, keeping the order given.
1. CC(C)C[C@H]1CN(c2ccc(F)c(-c3n[nH]c4ncccc34)n2)CCN1
2. Nc1ncccc1C(=O)c1ccn(C2CCCNCC2)n1 (centres unmarked)
3. NCCCNc1ncc2[nH]c(=O)n(Cc3cccc(Cl)c3)c2n1

### Response
["> 1.25 µM", "0.5 to 2.8 µM", "> 10 µM"]

###

From various publications: pKi for UniProt P17252.
pKi: −log10 of the molar value.

These solved cases illustrate the format of a correct answer.
CC(C)C[C@H]1CN(c2cc(C(F)(F)F)cc(-c3n[nH]c4ncccc34)n2)CCN1 = < 5.90
COC[C@H]1CN(c2cccc(-c3n[nH]c4ncccc34)n2)CCN1 = < 5.90
CN(C)C(=O)C1CN(c2ccc(C(F)(F)F)c(-c3n[nH]c4ncccc34)n2)CCN1 (centres unmarked) = < 5.90
CC(C)C[C@H]1CN(c2ccc(C(F)(F)F)c(-c3n[nH]c4ncccc34)n2)CC[C@@H]1O = < 5.90
Fc1ccccc1CNc1ncc2nc(-c3c(Cl)cccc3Cl)n(C[C@@H]3CCCNC3)c2n1 = < 6.00
Cc1ccc(C2CN(c3cccc(-c4n[nH]c5ncccc45)n3)CCN2)cc1 (centres unmarked) = > 5.55

List pKi for every entry below, keeping the order given.
1. CC(C)(CN)c1csc(-c2ccnc3[nH]ncc23)n1
2. CC1(C#N)CCN(c2ccc(C(F)(F)F)c(-c3n[nH]c4ncccc34)n2)CC1

### Response
> 5.55
< 5.90

###

From various publications: Ki for Protein kinase C alpha type (Homo sapiens, UniProt P17252).

O=c1[nH]c2cnc(NCC3CCNCC3)nc2n1Cc1c(Cl)cccc1Cl = > 10000 nM
CC(C)C[C@H]1CN(c2ccc(F)c(-c3n[nH]c4ncccc34)n2)C[C@H](C)N1 = > 1250 nM
c1cc(-c2n[nH]c3ncccc23)nc(N2CCNC(C3CC3)C2)c1 (centres unmarked) = > 1250 nM
Fc1ccc(N2CCC(C(F)(F)F)CC2)nc1-c1n[nH]c2ncccc12 = > 1250 nM
Fc1ccc(F)c(CNc2ncc3nc(-c4c(Cl)cccc4Cl)n(CC4CCNC4)c3n2)c1 (centres unmarked) = > 250 nM

List Ki for every entry below, keeping the order given.
1. CC(C)(F)CC1CN(c2ccc(C(F)(F)F)c(-c3n[nH]c4ncccc34)n2)CCN1 (centres unmarked)
2. CC(C)C[C@H]1CN(c2ccc(C(F)(F)F)c(-c3n[nH]c4ncccc34)n2)CC[C@@H]1N
3. CC(C)[C@H]1CN(c2ccc(C(F)(F)F)c(-c3n[nH]c4ncccc34)n2)CCN1

### Response
["> 1250 nM", "> 1250 nM", "> 1250 nM"]
